This collection of values is drawn from patent US5461057A.

# target.system: ICAM-1 (Homo sapiens)
# Construct: recombinant soluble ICAM-1 (2 μg/well)
# Sequence (P05362 28-480 limits assumed): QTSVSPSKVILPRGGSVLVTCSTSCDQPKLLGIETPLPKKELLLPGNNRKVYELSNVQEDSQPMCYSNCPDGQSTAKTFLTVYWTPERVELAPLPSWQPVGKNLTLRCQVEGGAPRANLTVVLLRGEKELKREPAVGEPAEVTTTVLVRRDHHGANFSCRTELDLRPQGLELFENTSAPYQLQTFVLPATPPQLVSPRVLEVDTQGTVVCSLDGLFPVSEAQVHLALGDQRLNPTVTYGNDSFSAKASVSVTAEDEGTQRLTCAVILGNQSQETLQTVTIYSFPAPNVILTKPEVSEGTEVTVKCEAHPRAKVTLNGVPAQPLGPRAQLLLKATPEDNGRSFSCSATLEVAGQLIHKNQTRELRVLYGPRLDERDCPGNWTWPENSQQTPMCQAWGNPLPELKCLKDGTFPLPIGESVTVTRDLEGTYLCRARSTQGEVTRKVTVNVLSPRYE
# measurement.notes: HL-60 cell adhesion to recombinant soluble ICAM-1
# condition: HL-60 cells
Each entry below carries its reported IC50.
Form entry: value (µM) — number only.

Report IC50 for CSc1ccc(C2=C3CC4CCC(C3c3ccccc32)N4C)cc1 (stereo not shown) [F] tested on ICAM-1 (Homo sapiens). 16.8

More entries:
Report IC50 for CN1C2CCC1C1C(=C(c3ccc(Cl)cc3)c3ccccc31)C2 (stereo not shown) [C] tested on ICAM-1 (Homo sapiens). 24.8

====

# Test system: M27 murine lung carcinoma cell adhesion to fibronectin
# measurement.notes: M27 lung carcinoma cell adhesion to fibronectin
# Assay type: cell-based
# condition: Mus musculus; read-out: M27 FN IC50
quantity.measured: IC50

Below are worked cases with known answers.
Report IC50 for CN1C2CCC1C1C(=C(c3ccc(Cl)cc3)c3ccccc31)C2 (stereo not shown) tested on M27 murine lung carcinoma cell adhesion to fibronectin. 13.7 µM

Moving on to Cc1ccc(C2=C3CC4CCC(C3c3ccccc32)N4C)cc1 (stereo not shown) 17.9 µM

Moving on to COc1ccc(C2=C3CC4CCC(N4)C3c3ccccc32)cc1 (stereo not shown) 17.1 µM

Continue with the next compound.
Report IC50 for CSc1ccc(C2=C3CC4CCC(C3c3ccccc32)N4C)cc1 (stereo not shown) tested on M27 murine lung carcinoma cell adhesion to fibronectin. 8.7 µM

====

# Tested on: histamine-induced dyspnea
# measurement.notes: Bronchodilator (in vivo) Guinea Pig Dyspnea
# condition: Cavia porcellus, 1 h; 100 mg/kg, oral, one hour before histamine challenge; read-out: DYSP survivors (converted)
quantity.measured: responders at 100 mg/kg (%)
Form entry: value (%) — number only.

Below are worked cases with known answers.
Report responders at 100 mg/kg for CN1C2CCC1C1c3ccccc3C(c3ccccc3)C1C2 (stereo not drawn) tested on histamine-induced dyspnea. 66.7

Moving on to Cc1ccc(C2(O)c3ccccc3C3C4CCC(CC32)N4C)cc1 (stereo not drawn) 33.3

Moving on to CN1C2CCC1C1c3cc(Cl)ccc3C(O)(c3ccccc3)C1C2 (stereo not drawn) 100

Moving on to CN1C2CCC1C1c3ccccc3C(O)(c3cccc(F)c3)C1C2 (stereo not drawn) 66.7

More entries:
Report responders at 100 mg/kg for CN1C2CCC1C1c3ccc(Cl)cc3C(O)(c3ccc(F)cc3)C1C2 (stereo not drawn) tested on histamine-induced dyspnea. 100

Moving on to CN1C2CCC1C1c3ccccc3C(O)(c3ccc(Cl)cc3)C1C2 (stereo not drawn) 33.3

====

# measurement.notes: Calcein cytotoxicity assay
# Type: cell-based
# condition: human, lox melanoma cells; 2 hours, calcein AM; read-out: selectivity for blockade of fibronectin adhesion vs. cytotoxicity (2 Hour Tox)
quantity.measured: selectivity ratio at 2 h
// return just the number, without any unit appended

For COc1ccc(C2=C3CC4CCC(N4)C3c3ccccc32)cc1 (stereo not shown) , what is its reported selectivity ratio at 2 h? 15

====

Each entry below carries its reported inhibition at 10 µM.
# Test system: LOX human melanoma cell adhesion to human fibronectin
# measurement.notes: LOX melanoma cell adhesion to fibronectin
# Format: cell-based
# condition: Homo sapiens, LOX, 10 μM; read-out: % Inhibition at 10 μM
The answer consists of two parts: a number and, after it, its unit.

For COc1ccc(C2(O)c3ccccc3C3C4CCC(CC32)N4)cc1 (stereo not shown) , what is its reported inhibition at 10 µM? 10.1%
